The origin of these recorded values is patent US20220211698A1.

# Test system: PfUIS3@Pb
# RUN DESCRIPTION: PfUIS3@Pb infection of Huh7 cells (flow cytometry EEF count)
# Assay type: cell-based, P. berghei expressing P. falciparum UIS3
# STATED CONDITIONS: PfUIS3@Pb-infected Huh7 cells, 24 h post-infection, flow cytometry
pIC50: −log10 of the molar value.

MOLECULE	TARGET SYSTEM	pIC50
N#Cc1ccc(C(=O)N2CCN(Cc3ccc(-c4noc(-c5cccc(C(F)(F)F)c5)n4)cc3)CC2)cc1 [Compound C4]	PfUIS3@Pb	6.73
